System tested: Akt1 (Homo sapiens)
Construct: a middle T tag was added to the 5′ end of the full length Akt1 gene; middle T tag (EYMPME) (N); biotin tag (from pS2neo vector)
Sequence (P31749 whole entry): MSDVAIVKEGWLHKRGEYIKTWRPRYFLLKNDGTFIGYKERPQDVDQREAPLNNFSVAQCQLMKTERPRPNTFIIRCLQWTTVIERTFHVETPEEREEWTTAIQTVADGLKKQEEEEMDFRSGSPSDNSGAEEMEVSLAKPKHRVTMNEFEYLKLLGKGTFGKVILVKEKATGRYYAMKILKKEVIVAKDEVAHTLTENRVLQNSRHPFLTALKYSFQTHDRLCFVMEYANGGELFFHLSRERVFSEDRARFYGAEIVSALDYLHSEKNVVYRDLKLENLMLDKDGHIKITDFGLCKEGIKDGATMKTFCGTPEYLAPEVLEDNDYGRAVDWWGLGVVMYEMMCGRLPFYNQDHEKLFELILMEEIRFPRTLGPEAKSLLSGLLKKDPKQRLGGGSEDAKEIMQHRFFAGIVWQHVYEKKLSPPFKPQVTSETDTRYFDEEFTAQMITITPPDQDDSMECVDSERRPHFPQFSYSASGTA
Method notes: Akt kinase assay (HTRF, GSK-derived biotinylated peptide substrate)
Experimental parameters: activated Akt1, HTRF, 120 minute preincubation; read-out: IC50 against Akt1
pIC50: −log10 of the molar value.
Measured attribute: pIC50

compound_string=COc1cncc(-c2nc(-c3ccc([C@]4(N)C[C@](C)(O)C4)cc3)c(-c3ccccc3)s2)c1 recorded_number=7.40
compound_string=COc1ccc(-c2nc(-c3ccc([C@]4(N)C[C@](C)(O)C4)cc3)c(-c3ccccc3)s2)cn1 recorded_number=7.04

###

System tested: Akt2 (Homo sapiens)
Construct: a middle T tag was added to the 5′ end of the full length Akt2 using the PCR primer; middle T tag (EYMPME) (N); biotin tag (from pS2neo vector)
Sequence (P31751 whole entry): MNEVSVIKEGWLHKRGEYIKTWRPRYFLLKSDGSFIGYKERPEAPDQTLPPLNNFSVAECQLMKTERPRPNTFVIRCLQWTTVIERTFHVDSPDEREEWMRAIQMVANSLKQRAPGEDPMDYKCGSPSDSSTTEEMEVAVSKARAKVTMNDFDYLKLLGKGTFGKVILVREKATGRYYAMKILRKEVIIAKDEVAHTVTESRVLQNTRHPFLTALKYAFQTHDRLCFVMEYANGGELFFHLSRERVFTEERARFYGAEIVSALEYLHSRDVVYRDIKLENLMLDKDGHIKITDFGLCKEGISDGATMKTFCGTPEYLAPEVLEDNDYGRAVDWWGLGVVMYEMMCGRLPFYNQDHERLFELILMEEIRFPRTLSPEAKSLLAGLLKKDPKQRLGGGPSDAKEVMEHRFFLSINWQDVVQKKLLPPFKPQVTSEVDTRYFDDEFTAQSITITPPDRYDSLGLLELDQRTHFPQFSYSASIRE
Method notes: Akt kinase assay (HTRF, GSK-derived biotinylated peptide substrate)
Experimental parameters: activated Akt2, HTRF, 120 minute preincubation; read-out: IC50 against Akt2
pIC50: −log10 of the molar value.
Measured attribute: pIC50

compound="COc1ccc(-c2nc(-c3ccc([C@]4(N)C[C@](C)(O)C4)cc3)c(-c3ccccc3)s2)cn1 [Compound 2-1]" system_tested="Akt2 (Homo sapiens)" recorded_number=7.59
compound="COc1cncc(-c2nc(-c3ccc([C@]4(N)C[C@](C)(O)C4)cc3)c(-c3ccccc3)s2)c1 [Compound 3-1]" system_tested="Akt2 (Homo sapiens)" recorded_number=7.60
